Reported IC50 values follow for various compounds
# test_summary: ABTS radical scavenging assay
# Assay type: biochemical
# condition_set: read-out: ABTS IC50; concentration to scavenge 50% of radicals, mean ± SD
Kindly answer with a numeric value in mM, unit omitted.

Example entries and their recorded answers appear below.
- compound: "CC1(C)C2CC[C@@]1(C)C(=O)/C2=C/c1cc2ccccc2o1 [Compound 10]"
  IC50 [mM]: 1.15
- compound: "CC1(C)C2CC[C@]1(C)C(=O)/C2=C/c1cccs1 [Compound 5]"
  IC50 [mM]: 1.3
- compound: "CC1(C)C2CC[C@@]1(C)C(=O)/C2=C/c1ccco1 [Compound 4]"
  IC50 [mM]: 1
- compound: "CC1(C)C2CC[C@@]1(C)C(=O)/C2=C/c1cccs1 [Compound 6]"
  IC50 [mM]: 1.08
- compound: "CC1(C)C2CC[C@@]1(C)C(=O)/C2=C/c1ccoc1 [Compound 8]"
  IC50 [mM]: 1.34

Next compound, IC50 to be filled in.
Item: CC1(C)C2CC[C@]1(C)C(=O)/C2=C/c1ccsc1 [Compound 11] | IC50: 1.4

====

# test_summary: Hemolysis assay
# Type: cell-based, human
# condition_set: human, washed human red blood cells, Hemolysis (%), 50 µg/mL, 30 min, 37 °C
Rule: hemolysis at 30 min, 50 µg/mL under 5% gives NO, otherwise YES.

Answered examples (3):
- compound: "CC1(C)C2CC[C@]1(C)C(=O)/C2=C/c1ccoc1 [Compound 7]"
  label: "NO"
- compound: "CC1(C)C2CC[C@@]1(C)C(=O)/C2=C/c1cccs1 [Compound 6]"
  label: "YES"
- compound: "CC1(C)C2CC[C@]1(C)C(=O)/C2=C/c1ccsc1 [Compound 11]"
  label: "YES"

Prompt: Hi team, for CC1(C)C2CC[C@@]1(C)C(=O)/C2=C/c1ccoc1 [Compound 8] , is the recorded hemolysis at 30 min, 50 µg/mL at or above 5%?
Completion: YES

Prompt: Determine whether this compound has hemolysis at 30 min, 50 µg/mL no lower than 5%: CC1(C)C2CC[C@]1(C)C(=O)/C2=C/c1ccco1 [Compound 3]
Completion: YES

====

# test_summary: Hemolysis assay
# Type: cell-based, human
# condition_set: human, washed human red blood cells, Hemolysis (%), 10 µg/mL, 30 min, 37 °C
measured_endpoint: hemolysis at 30 min, 10 µg/mL
The reply should read as a number followed by its unit.

# example entries with known answers
- compound: "CC1(C)C2CC[C@@]1(C)C(=O)/C2=C/c1ccco1 [Compound 4]"
  result: "15.7%"
- compound: "CC1(C)C2CC[C@]1(C)C(=O)/C2=C/c1ccco1 [Compound 3]"
  result: "6.75%"
- compound: "CC1(C)C2CC[C@@]1(C)C(=O)/C2=C/c1ccsc1 [Compound 12]"
  result: "5.9%"
- compound: "CC1(C)C2CC[C@]1(C)C(=O)/C2=C/c1cccs1 [Compound 5]"
  result: "0%"

Please turn your attention to the following entry.
# hemolysis at 30 min, 10 µg/mL of CC1(C)C2CC[C@]1(C)C(=O)/C2=C/c1ccoc1 [Compound 7] = 0%

====

# test_summary: Hemolysis assay
# Assay type: cell-based, human
# condition_set: human, washed human red blood cells, Hemolysis (%), 25 µg/mL, 30 min, 37 °C
# label = Condition met if hemolysis at 30 min, 25 µg/mL >= 0.8% else Condition not met

Here's what some known entries look like.
- test_smiles: "CC1(C)C2CC[C@@]1(C)C(=O)/C2=C/c1cc2ccccc2o1"
  label: "Condition not met"
- test_smiles: "CC1(C)C2CC[C@]1(C)C(=O)/C2=C/c1cc2ccccc2o1"
  label: "Condition met"
- test_smiles: "CC1(C)C2CC[C@@]1(C)C(=O)/C2=C/c1cccs1"
  label: "Condition met"
- test_smiles: "CC1(C)C2CC[C@@]1(C)C(=O)/C2=C/c1ccsc1"
  label: "Condition met"
- test_smiles: "CC1(C)C2CC[C@]1(C)C(=O)/C2=C/c1ccsc1"
  label: "Condition not met"
- test_smiles: "CC1(C)C2CC[C@]1(C)C(=O)/C2=C/c1cccs1"
  label: "Condition not met"
- test_smiles: "CC1(C)C2CC[C@]1(C)C(=O)/C2=C/c1ccoc1"
  label: "Condition not met"
- test_smiles: "CC1(C)C2CC[C@@]1(C)C(=O)/C2=C/c1ccoc1"
  label: "Condition met"
- test_smiles: "CC1(C)C2CC[C@]1(C)C(=O)/C2=C/c1ccco1"
  label: "Condition met"

Now, please, on to the next compound.
Prompt: Decide: is the reported value of hemolysis at 30 min, 25 µg/mL for CC1(C)C2CC[C@@]1(C)C(=O)/C2=C/c1ccco1 equal to or greater than 0.8%?
Completion: Condition met
